tested on: MDA-MB-231 breast; test: NCI tumour cell line growth inhibition, 48 h
// TGI lookup, one value per entry
Express your answer in µM, writing the number without its unit.

Here is how some compounds turned out for TGI.
[
  {
    "compound": "Clc1ccc2nnnn2n1",
    "TGI [µM]": 7.01
  },
  {
    "compound": "O=C(c1ccccc1)C(Br)C(Br)c1cccc([N+](=O)[O-])c1 (stereo not given)",
    "TGI [µM]": 3.79
  },
  {
    "compound": "COc1cc(/C=N/NC(=O)c2cnn3c2NC(c2ccccc2)C3)ccc1Oc1ccccc1 (stereo not given)",
    "TGI [µM]": 5.03
  }
]

Input line: Look up and report measured TGI for this entry: Nc1nc(N)c2c(n1)NC(c1ccc(F)cc1)C1CCc3ccccc3C1=N2 (stereo not given)
Output line: 19.8

====

We begin with a simple list: items and their reported TGI.
tested on: MCF7 breast; assay: NCI tumour cell line growth inhibition, 48 h

// known answers, use as guide
[
  {
    "chem smiles": "C/C(=N\\NC(=S)N1CCN(C)CC1)c1nc2ncccc2[nH]1",
    "TGI": "80.5 µM"
  },
  {
    "chem smiles": "CCC[CH2][Sn]([CH2]CCC)([CH2]CCC)[O]C(=O)c1ccc(Cl)cc1Cl",
    "TGI": "0.278 µM"
  },
  {
    "chem smiles": "C=CC[C@@]1([C@H](C=C)COCc2ccc(OC)cc2)CC[C@]2(C)OC(C)(C)[C@@H](c3ccccc3)N2C1=S",
    "TGI": "> 100 µM"
  },
  {
    "chem smiles": "O=C1C=CC[C@H](/C=C/c2ccccc2)O1",
    "TGI": "> 37.8 µM"
  },
  {
    "chem smiles": "Nc1nc2n[nH]nc2c(=O)[nH]1",
    "TGI": "> 100 µM"
  }
]

Input line: Fill in reported TGI for this entry: `Cc1cc2sc(C)[n+](CCCOS(=O)(=O)[O-])c2cc1C`
Output line: > 100 µM

Input line: Name the recorded TGI of the molecule listed here: `O=c1oc2cc(N=Cc3ccc4c(c3)OCO4)ccc2c2ccccc12`
Output line: > 100 µM

====

tested on: A498 renal; assay: NCI tumour cell line growth inhibition, 48 h
Entries and their measured TGI follow.

Before answering, review these 3 worked examples.
[
  {
    "molecule": "COc1cc(C(O)C(=O)c2nc3ccc([N+](=O)[O-])cc3[nH]c2=O)ccc1O (stereo not given)",
    "experimental target": "A498 renal",
    "TGI": "97 µM"
  },
  {
    "molecule": "Cc1ccc(N(C(=O)Nc2ccc(F)c(Cl)c2)C2=NCC(C)S2)cc1 (stereo not given)",
    "experimental target": "A498 renal",
    "TGI": "> 100 µM"
  },
  {
    "molecule": "COc1cc(-n2cc(-c3ccc(Cl)cc3)nc2SCc2cccc(C#N)c2)cc(OC)c1OC",
    "experimental target": "A498 renal",
    "TGI": "> 100 µM"
  }
]

Input line: Dear colleague, please send me the reported TGI for `O=C(Nc1ccccc1)n1[nH]c(=O)n(-c2ccccc2)c1=O` when you can.
Output line: > 100 µM

Input line: Consider the molecule `Cc1c2c(Cl)c3c(c(Cl)c2c(C)c2c(Cl)c4c(c(Cl)c12)C(c1ccccc1)(c1ccccc1)C4(c1ccccc1)c1ccccc1)C(c1ccccc1)(c1ccccc1)C3(c1ccccc1)c1ccccc1` . State its measured TGI.
Output line: > 100 µM

Input line: In one line, give reported TGI of the entry `COC(=O)NC12CC3CC(CC(F)(C3)C1)C2` .
Output line: > 100 µM

Input line: Determine its reported TGI: `CCC[CH2][Sn]([CH2]CCC)([CH2]CCC)[O]C(=O)c1ccc(Cl)cc1Cl`
Output line: 0.236 µM

Input line: Determine from records and report TGI for COc1cc2c(cc1OC)[C@H]1C(COC(=O)c3ccccc3)CSC(=Nc3ccccc3)N1CC2 (stereo not given in full)
Output line: > 100 µM

Input line: Supply measured TGI of `Cc1cc2sc(C)[n+](CCCOS(=O)(=O)[O-])c2cc1C` in your reply.
Output line: > 100 µM

Input line: Retrieve TGI measured for O=C(O)CCC(NC(=O)c1ccccc1)C(=O)O (stereo not given) and print it.
Output line: > 100 µM
